Measured on: Neuropeptide Y receptor type 2 (Homo sapiens)
Sequence (P49146 whole entry): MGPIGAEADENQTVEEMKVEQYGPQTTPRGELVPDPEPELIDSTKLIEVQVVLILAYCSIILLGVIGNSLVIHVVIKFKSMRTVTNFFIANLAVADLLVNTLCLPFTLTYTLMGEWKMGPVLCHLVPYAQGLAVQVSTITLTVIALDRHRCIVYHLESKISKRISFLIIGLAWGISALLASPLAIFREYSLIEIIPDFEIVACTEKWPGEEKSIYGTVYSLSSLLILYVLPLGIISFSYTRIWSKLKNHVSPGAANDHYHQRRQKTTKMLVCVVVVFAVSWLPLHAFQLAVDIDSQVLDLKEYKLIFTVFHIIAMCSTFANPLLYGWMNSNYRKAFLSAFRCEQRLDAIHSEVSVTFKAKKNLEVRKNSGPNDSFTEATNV
Assay procedure: Displacement of [125I]-PYY from human neuropeptide Y2 receptor expressed in CHO cell membranes incubated for 60 mins by TopCount based method
# IC50 listing for each entry below
Only the number, expressed in nM, is required.

CC(C)C[C@H](NC(=O)[C@H](CC(N)=O)NC(=O)[C@H](CC1CCCCC1)NC(=O)[C@H](CC1CCCCC1)NC(=O)[C@H](Cc1cnc[nH]1)NC(=O)[C@H](CCCNC(=N)N)NC(=O)[C@H]1CCCN1C(=O)[C@H](CO)NC(=O)c1c[nH]cn1)C(=O)NC(C)(C)C(=O)N[C@H](C(=O)N[C@@H](CCCNC(=N)N)C(=O)N[C@@H](CCC(N)=O)C(=O)N[C@@H](CCCNC(=N)N)C(=O)N[C@@H](CC1CCCCC1)C(N)=O)[C@@H](C)O = 0.51

Documented IC50 of CC[C@](C)(NC(=O)[C@H](CC1CCCCC1)NC(=O)[C@H](Cc1cnc[nH]1)NC(=O)[C@H](CCCNC(=N)N)NC(=O)[C@H]1CCCN1C(=O)[C@H](CO)NC(C)=O)C(=O)N[C@@H](CC(N)=O)C(=O)N[C@@H](CC(C)C)C(=O)NC(C)(C)C(=O)N[C@H](C(=O)N[C@@H](CCCNC(=N)N)C(=O)N[C@@H](CCC(N)=O)C(=O)N[C@@H](CCCNC(=N)N)C(=O)N[C@@H](CC1CCCCC1)C(N)=O)[C@@H](C)O : 0.45

// field: IC50; key: CC[C@](C)(NC(=O)[C@H]1CCCN1C(=O)[C@H](CO)NC(C)=O)C(=O)N[C@@H](Cc1ccncc1)C(=O)N[C@@H](CC1CCCCC1)C(=O)NC(C)(C)C(=O)N[C@@H](CC(N)=O)C(=O)N[C@@H](CCCCN)C(=O)NC(C)(C)C(=O)N[C@H](C(=O)N[C@@H](CCCNC(=N)N)C(=O)N[C@@H](CCC(N)=O)C(=O)N[C@@H](CCCNC(=N)N)C(=O)N[C@@H](CC1CCCCC1)C(N)=O)[C@@H](C)O ; value = 1.8

* * *

Reported pEC50 is given for each of the following molecules.
Measured on: Neuropeptide Y receptor type 2 (Homo sapiens, UniProt P49146)
Assay procedure: Agonist activity at human neuropeptide Y2 receptor expressed in CHO cell membranes assessed as stimulation of [35S]GTPgammaS binding incubated for 120 mins by liquid scintillation counting method
Remember the convention: pEC50 equals -log10 of concentration in molar.

Recorded pEC50, per entry:
CC[C@](C)(NC(=O)[C@H](CC1CCCCC1)NC(=O)[C@H](Cc1ccncc1)NC(=O)[C@H](CCCNC(=N)N)NC(=O)[C@H]1CCCN1C(=O)[C@H](CO)NC(C)=O)C(=O)N[C@@H](CC(N)=O)C(=O)N[C@@H](CCCCN)C(=O)NC(C)(C)C(=O)N[C@H](C(=O)N[C@@H](CCCNC(=N)N)C(=O)N[C@@H](CCC(N)=O)C(=O)N[C@@H](CCCNC(=N)N)C(=O)N[C@@H](CC1CCCCC1)C(N)=O)[C@@H](C)O = 9.85
CC[C@](C)(NC(=O)[C@H]1C[C@H](O)CN1C(=O)[C@H](CO)NC(C)=O)C(=O)N[C@@H](Cc1ccncc1)C(=O)N[C@@H](CC1CCCCC1)C(=O)N[C@@H](CC(C)(C)C)C(=O)N[C@@H](CC(N)=O)C(=O)N[C@@H](CCCCN)C(=O)NC(C)(C)C(=O)N[C@H](C(=O)N[C@@H](CCCNC(=N)N)C(=O)N[C@@H](CCC(N)=O)C(=O)N[C@@H](CCCNC(=N)N)C(=O)N[C@@H](CC1CCCCC1)C(N)=O)[C@@H](C)O = 9.89
CC[C@](C)(NC(=O)[C@H](CC1CCCCC1)NC(=O)[C@H](Cc1ccncc1)NC(=O)[C@](C)(CC)NC(=O)[C@H]1CCCN1C(=O)[C@H](CO)NC(C)=O)C(=O)N[C@@H](CC(N)=O)C(=O)N[C@@H](CCCCN)C(=O)NC(C)(C)C(=O)N[C@H](C(=O)N[C@@H](CCCNC(=N)N)C(=O)N[C@@H](CCC(N)=O)C(=O)N[C@@H](CCCNC(=N)N)C(=O)N[C@@H](CC1CCCCC1)C(N)=O)[C@@H](C)O = 9.80

Kindly note the recorded pEC50 for CC[C@](C)(NC(=O)[C@H](CC1CCCCC1)NC(=O)[C@H](Cc1cnc[nH]1)NC(=O)[C@H](CCCNC(=N)N)NC(=O)[C@H]1CCCN1C(=O)[C@H](CO)NC(C)=O)C(=O)N[C@@H](CC(N)=O)C(=O)N[C@@H](CC(C)C)C(=O)NC(C)(C)C(=O)N[C@H](C(=O)N[C@@H](CCCNC(=N)N)C(=O)N[C@@H](CCC(N)=O)C(=O)N[C@@H](CCCNC(=N)N)C(=O)N[C@@H](CC1CCCCC1)C(N)=O)[C@@H](C)O , which is 9.74

Short answer for CC[C@](C)(NC(=O)[C@H]1CCCN1C(=O)[C@H](CO)NC(C)=O)C(=O)N[C@@H](Cc1ccncc1)C(=O)N[C@@H](CC1CCCCC1)C(=O)N[C@@H](CC(C)(C)C)C(=O)N[C@@H](CC(N)=O)C(=O)N[C@@H](CCCCN)C(=O)NC(C)(C)C(=O)N[C@H](C(=O)N[C@@H](CCCNC(=N)N)C(=O)N[C@@H](CCC(N)=O)C(=O)N[C@@H](CCCNC(=N)N)C(=O)N[C@@H](CC1CCCCC1)C(N)=O)[C@@H](C)O : pEC50 was 9.70

* * *

Test system: Mus musculus
Assay procedure: Anorectic activity in C57BL/6J mouse assessed as inhibition of food intake at 0.3 mg/kg/day, sc dosed as […] and measured after 12 hrs
Type: functional
Below: a set of entries, each annotated with reported inhibition in vivo at 0.3 mg/kg/day.
// return numeric value only (unit: %, not printed)

CC[C@](C)(NC(=O)[C@H](CC1CCCCC1)NC(=O)[C@H](Cc1ccncc1)NC(=O)[C@](C)(CC)NC(=O)[C@H]1CCCN1C(=O)[C@H](CO)NC(C)=O)C(=O)N[C@@H](CC(N)=O)C(=O)N[C@@H](CCCCN)C(=O)NC(C)(C)C(=O)N[C@H](C(=O)N[C@@H](CCCNC(=N)N)C(=O)N[C@@H](CCC(N)=O)C(=O)N[C@@H](CCCNC(=N)N)C(=O)N[C@@H](CC1CCCCC1)C(N)=O)[C@@H](C)O = 23

Quick note, inhibition in vivo at 0.3 mg/kg/day for CC[C@](C)(NC(=O)[C@H]1CCCN1C(=O)[C@H](CO)NC(C)=O)C(=O)N[C@@H](Cc1ccncc1)C(=O)N[C@@H](CC1CCCCC1)C(=O)N[C@@H](CC(C)(C)C)C(=O)N[C@@H](CC(N)=O)C(=O)N[C@@H](CCCCN)C(=O)NC(C)(C)C(=O)N[C@H](C(=O)N[C@@H](CCCNC(=N)N)C(=O)N[C@@H](CCC(N)=O)C(=O)N[C@@H](CCCNC(=N)N)C(=O)N[C@@H](CC1CCCCC1)C(N)=O)[C@@H](C)O landed at 12

Measured inhibition in vivo at 0.3 mg/kg/day of CC[C@](C)(NC(=O)[C@H](CC1CCCCC1)NC(=O)[C@H](Cc1ccncc1)NC(=O)[C@H](CCCNC(=N)N)NC(=O)[C@H]1CCCN1C(=O)[C@H](CO)NC(C)=O)C(=O)N[C@@H](CC(N)=O)C(=O)N[C@@H](CCCCN)C(=O)NC(C)(C)C(=O)N[C@H](C(=O)N[C@@H](CCCNC(=N)N)C(=O)N[C@@H](CCC(N)=O)C(=O)N[C@@H](CCCNC(=N)N)C(=O)N[C@@H](CC1CCCCC1)C(N)=O)[C@@H](C)O : 41

Please fill in: inhibition in vivo at 0.3 mg/kg/day reported for CC(=O)N[C@@H](CO)C(=O)N1CCC[C@@H]1C(=O)N[C@@H](CCCNC(=N)N)C(=O)N[C@@H](Cc1ccncc1)C(=O)N[C@@H](CC1CCCCC1)C(=O)NC(C)(C)C(=O)N[C@@H](CC(N)=O)C(=O)N[C@@H](CCCCN)C(=O)NC(C)(C)C(=O)N[C@H](C(=O)N[C@@H](CCCNC(=N)N)C(=O)N[C@@H](CCC(N)=O)C(=O)N[C@@H](CCCNC(=N)N)C(=O)N[C@@H](CC1CCCCC1)C(N)=O)[C@@H](C)O = 35

Lookup result for CC[C@](C)(NC(=O)[C@H]1C[C@H](O)CN1C(=O)[C@H](CO)NC(C)=O)C(=O)N[C@@H](Cc1ccncc1)C(=O)N[C@@H](CC1CCCCC1)C(=O)N[C@@H](CC(C)(C)C)C(=O)N[C@@H](CC(N)=O)C(=O)N[C@@H](CCCCN)C(=O)NC(C)(C)C(=O)N[C@H](C(=O)N[C@@H](CCCNC(=N)N)C(=O)N[C@@H](CCC(N)=O)C(=O)N[C@@H](CCCNC(=N)N)C(=O)N[C@@H](CC1CCCCC1)C(N)=O)[C@@H](C)O ; measured inhibition in vivo at 0.3 mg/kg/day: 4

get_value(item= CC[C@](C)(NC(=O)[C@H]1C[C@H](O)CN1C(=O)[C@H](CO)NC(=O)c1c[nH]cn1)C(=O)N[C@@H](Cc1ccncc1)C(=O)N[C@@H](CC1CCCCC1)C(=O)N[C@@H](CC(C)(C)C)C(=O)N[C@@H](CC(N)=O)C(=O)N[C@@H](CCCCN)C(=O)NC(C)(C)C(=O)N[C@H](C(=O)N[C@@H](CCCNC(=N)N)C(=O)N[C@@H](CCC(N)=O)C(=O)N[C@@H](CCCNC(=N)N)C(=O)N[C@@H](CC1CCCCC1)C(N)=O)[C@@H](C)O , readout=inhibition in vivo at 0.3 mg/kg/day) returns 41
